# target-desc: human CTLA-4 (human) (UniProt P16410)
# Sequence (P16410 36-223): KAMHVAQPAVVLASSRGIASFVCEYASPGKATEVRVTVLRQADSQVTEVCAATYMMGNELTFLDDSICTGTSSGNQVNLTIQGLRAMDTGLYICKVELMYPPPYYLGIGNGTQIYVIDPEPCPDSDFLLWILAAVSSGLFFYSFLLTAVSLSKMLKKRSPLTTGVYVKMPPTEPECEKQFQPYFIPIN
# procedure-details: flow cytometry, CHO cells expressing huCTLA4

- binder: "variant CD80 IgV-Fc H18Y/E35D/V68M/L97Q (Fc fusion) VIHVTKEVKEVATLSCGYNVSVEELAQTRIYWQKDKKMVLTMMSGDMNIWPEYKNRTIFDITNNLSIMILALRPSDEGTYECVVLKYEKDAFKREHQAEVTLSVKAD"
  MFI at 33.3 nM (MFI): 173000
- binder: "variant CD80 IgV-Fc Q33L/E35D/M47L/V68M/L85Q/E88D (Fc fusion) VIHVTKEVKEVATLSCGHNVSVEELAQTRIYWLKDKKMVLTMMSGDLNIWPEYKNRTIFDITNNLSIMILALRPSDEGTYECVVQKYDKDAFKREHLAEVTLSVKAD"
  MFI at 33.3 nM (MFI): 3530
